# subjectOfTest: CDK17/Cyclin Y (Homo sapiens, UniProt Q00537)
# Sequence (Q00537 whole entry): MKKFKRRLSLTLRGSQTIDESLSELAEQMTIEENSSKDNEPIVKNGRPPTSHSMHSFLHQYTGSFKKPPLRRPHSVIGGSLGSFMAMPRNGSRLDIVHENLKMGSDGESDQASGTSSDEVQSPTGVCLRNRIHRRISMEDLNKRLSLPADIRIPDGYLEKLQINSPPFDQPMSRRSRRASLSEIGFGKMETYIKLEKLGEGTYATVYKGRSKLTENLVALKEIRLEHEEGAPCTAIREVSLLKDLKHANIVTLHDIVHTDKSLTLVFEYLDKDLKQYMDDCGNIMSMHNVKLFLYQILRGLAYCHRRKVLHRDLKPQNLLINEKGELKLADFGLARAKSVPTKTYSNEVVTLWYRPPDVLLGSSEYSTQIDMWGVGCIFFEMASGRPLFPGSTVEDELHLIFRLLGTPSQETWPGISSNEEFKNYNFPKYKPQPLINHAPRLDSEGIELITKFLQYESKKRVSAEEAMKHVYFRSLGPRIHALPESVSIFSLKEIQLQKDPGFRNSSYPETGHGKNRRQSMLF
# Sequence (Q8ND76 whole entry partner): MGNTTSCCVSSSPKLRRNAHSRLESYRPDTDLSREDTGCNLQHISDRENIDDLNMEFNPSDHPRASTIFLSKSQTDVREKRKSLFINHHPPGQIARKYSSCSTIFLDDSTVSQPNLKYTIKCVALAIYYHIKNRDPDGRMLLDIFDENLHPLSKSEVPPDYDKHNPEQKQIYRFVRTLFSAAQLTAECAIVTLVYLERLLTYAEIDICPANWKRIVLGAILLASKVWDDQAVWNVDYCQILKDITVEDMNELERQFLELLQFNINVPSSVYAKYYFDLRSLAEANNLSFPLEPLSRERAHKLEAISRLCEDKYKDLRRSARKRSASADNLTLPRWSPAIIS
# procedureDetails: NanoBRET live-cell target engagement, CDK17-NanoLuc/Cyclin Y in HEK-293
# Type: binding
# assayConditions: independent experiment 2; read-out: CDK17/Y IC50
metricName: pIC50
Numbers only, as −log10 of the molar value.

> print(dat)
                          structureassmiles  metricname  quantitativeresult
1  CN1C/C=C/CCOc2cccc(c2)-c2ccnc(n2)Nc2cccc(c2)C1       pIC50                7.33
2  CN1CCN(c2ccc(Nc3ncc4cc5n(c4n3)C3(CCCCC3)CNC5=O)nc2)CC1       pIC50                6.10

Kindly review the next compound as well.
Endpoint output: pIC50 of `COCCN1CCN(Cc2ccc(-c3n[nH]c4c3C(=O)c3c(NC(=O)NN5CCOCC5)cccc3-4)cc2)CC1` . Value?
8.28

---

# subjectOfTest: CDK10/Cyclin L2 (Homo sapiens, UniProt Q15131)
# Sequence (Q15131 whole entry): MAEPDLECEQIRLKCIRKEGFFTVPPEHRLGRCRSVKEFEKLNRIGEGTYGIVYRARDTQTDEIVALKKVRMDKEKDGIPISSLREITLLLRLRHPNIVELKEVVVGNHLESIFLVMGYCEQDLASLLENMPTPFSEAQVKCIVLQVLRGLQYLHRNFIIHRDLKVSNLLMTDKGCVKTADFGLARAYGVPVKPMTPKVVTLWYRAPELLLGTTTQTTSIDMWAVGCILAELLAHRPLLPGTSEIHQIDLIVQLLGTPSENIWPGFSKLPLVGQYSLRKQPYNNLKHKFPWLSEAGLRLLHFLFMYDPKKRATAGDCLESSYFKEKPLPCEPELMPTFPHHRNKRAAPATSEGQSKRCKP
# procedureDetails: NanoBRET live-cell target engagement, CDK10-NanoLuc/Cyclin L2 in HEK-293
# assayConditions: IC50, [Probe 1] 1 µM; n=1
metricName: IC50

Endpoint output: IC50 of `CCc1cnn2c(NCc3ccc[n+]([O-])c3)cc(N3CCCC[C@H]3CCO)nc12` . Value?
0.74 µM

---

# subjectOfTest: CDK12/Cyclin K (Homo sapiens)
# Sequence (Q9NYV4 1-1481 isoform Q9NYV4-2): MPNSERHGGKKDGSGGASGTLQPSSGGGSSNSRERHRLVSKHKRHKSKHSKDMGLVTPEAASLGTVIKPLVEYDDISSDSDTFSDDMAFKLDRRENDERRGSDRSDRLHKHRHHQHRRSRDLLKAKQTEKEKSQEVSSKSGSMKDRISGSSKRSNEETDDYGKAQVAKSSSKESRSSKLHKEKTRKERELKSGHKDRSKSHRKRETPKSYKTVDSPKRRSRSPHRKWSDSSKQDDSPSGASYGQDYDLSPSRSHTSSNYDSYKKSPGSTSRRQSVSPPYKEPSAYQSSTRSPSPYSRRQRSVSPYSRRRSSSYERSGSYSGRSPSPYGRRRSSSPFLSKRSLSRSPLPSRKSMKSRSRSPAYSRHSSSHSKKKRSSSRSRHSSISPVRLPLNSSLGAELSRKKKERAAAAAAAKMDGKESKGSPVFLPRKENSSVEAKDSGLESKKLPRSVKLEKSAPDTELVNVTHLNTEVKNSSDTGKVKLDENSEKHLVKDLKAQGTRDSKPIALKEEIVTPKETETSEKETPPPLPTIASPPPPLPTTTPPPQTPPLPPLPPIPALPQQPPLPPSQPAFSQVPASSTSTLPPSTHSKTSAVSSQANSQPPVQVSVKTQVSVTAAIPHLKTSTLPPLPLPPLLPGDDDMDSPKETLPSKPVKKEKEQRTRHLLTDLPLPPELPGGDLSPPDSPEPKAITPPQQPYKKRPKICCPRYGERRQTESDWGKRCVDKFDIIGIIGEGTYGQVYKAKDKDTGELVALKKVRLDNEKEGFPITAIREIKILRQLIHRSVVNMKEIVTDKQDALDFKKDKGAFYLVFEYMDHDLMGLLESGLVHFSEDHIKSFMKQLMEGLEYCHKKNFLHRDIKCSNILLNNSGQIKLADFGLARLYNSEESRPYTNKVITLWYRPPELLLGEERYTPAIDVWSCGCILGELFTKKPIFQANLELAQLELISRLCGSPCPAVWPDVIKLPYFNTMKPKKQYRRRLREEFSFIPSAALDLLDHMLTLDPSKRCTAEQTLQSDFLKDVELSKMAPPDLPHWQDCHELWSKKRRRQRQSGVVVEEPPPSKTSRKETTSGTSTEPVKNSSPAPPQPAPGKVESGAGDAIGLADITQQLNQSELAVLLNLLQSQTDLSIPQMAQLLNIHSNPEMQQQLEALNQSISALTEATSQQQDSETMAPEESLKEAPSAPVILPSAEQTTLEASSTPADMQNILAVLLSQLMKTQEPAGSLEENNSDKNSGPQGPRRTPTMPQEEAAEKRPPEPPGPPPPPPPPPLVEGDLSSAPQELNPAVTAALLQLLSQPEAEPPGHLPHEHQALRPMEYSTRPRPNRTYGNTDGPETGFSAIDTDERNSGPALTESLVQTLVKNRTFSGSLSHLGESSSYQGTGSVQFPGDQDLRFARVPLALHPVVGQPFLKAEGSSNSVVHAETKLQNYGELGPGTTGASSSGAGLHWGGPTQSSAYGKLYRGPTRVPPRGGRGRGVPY
# Sequence (O75909 whole entry partner): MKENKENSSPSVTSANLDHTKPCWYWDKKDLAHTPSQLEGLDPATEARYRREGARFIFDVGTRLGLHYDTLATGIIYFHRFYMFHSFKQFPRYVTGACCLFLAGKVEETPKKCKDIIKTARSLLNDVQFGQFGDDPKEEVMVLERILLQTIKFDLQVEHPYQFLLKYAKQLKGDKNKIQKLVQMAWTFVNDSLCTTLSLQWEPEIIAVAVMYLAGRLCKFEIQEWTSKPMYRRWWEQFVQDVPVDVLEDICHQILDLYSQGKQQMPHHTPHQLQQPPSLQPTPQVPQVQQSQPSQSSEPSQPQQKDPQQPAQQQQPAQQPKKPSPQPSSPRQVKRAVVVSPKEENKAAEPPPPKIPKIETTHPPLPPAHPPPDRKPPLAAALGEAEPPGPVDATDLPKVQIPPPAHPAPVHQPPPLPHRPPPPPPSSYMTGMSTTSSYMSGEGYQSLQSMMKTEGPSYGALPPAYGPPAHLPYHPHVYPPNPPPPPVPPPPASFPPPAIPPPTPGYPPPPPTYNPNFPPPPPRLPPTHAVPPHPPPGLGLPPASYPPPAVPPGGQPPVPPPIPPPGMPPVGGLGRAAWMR
# procedureDetails: NanoBRET live-cell target engagement, CDK12-NanoLuc/Cyclin K in HEK-293
# Assay type: binding
# assayConditions: independent experiment 2; read-out: CDK12/K IC50
metricName: IC50 (nM)
Numbers only, in nM.

Could I get IC50 for every one of these entries?
1. CN1C/C=C/CCOc2cccc(c2)-c2ccnc(n2)Nc2cccc(c2)C1 [SB1317]
2. CN(C)C/C=C/C(=O)Nc1ccc(C(=O)N2CCC[C@@H](Nc3ncc(Cl)c(-c4c[nH]c5ccccc45)n3)C2)cc1 [THZ531]

1. 750
2. 1000

---

# subjectOfTest: CDK17/Cyclin Y (Homo sapiens, UniProt Q00537)
# procedureDetails: NanoBRET live-cell target engagement, CDK17-NanoLuc/Cyclin Y in HEK-293
# Format: binding
# assayConditions: CDK17/Y; 10µM
For each record, write down the corresponding Inhibition at 10µM (%) Replicate 2.
Numbers only, in %.

> print(dat)
                                   compound                          metricname  quantitativeresult
1  CNC1CCN(C(=O)c2ccc(Nc3ncc(F)c(-c4cnc(C)n4C(C)C)n3)cc2)C1 (stereo not shown) [AZD5597]  Inhibition at 10µM (%) Replicate 2                91.8
2  CCC(CO)Nc1nc(Nc2cccc(-c3ccccn3)c2)c2ncn(C(C)C)c2n1.Cl.O [(R) - DRF053]  Inhibition at 10µM (%) Replicate 2                25.1

Could I get Inhibition at 10µM (%) Replicate 2 for every one of these entries?
1. O=C(Nc1c[nH]nc1-c1ccccn1)c1nn(C2CCNCC2)cc1Cl [BDP5290]
2. CC(C)c1cnn2c(NCc3ccccc3)cc(N[C@@H](CO)[C@H](O)CO)nc12 [BS-194]

1.8
82.4
